Tested on: MS2 coat protein
Experiment: apparent KD of MS2 coat protein; designed switch direction (-1 OFF switch, 1 ON switch): 1; higher = weaker reporter binding
Settings: input ligand: microRNA oligo, concentration not stated
Measured apparent KD of MS2 coat protein, listed per entry for reference.
// units = µM; emit number, no label

Example entries begin here.
- RESIDUE CODES: "GCUAGAAUAAAAGCCAACAUGAGGAUCACCCAUGUAUGUUGGCAGGAUAUCGUUUGCAAAGCAAACGAGAAGGGCCAUACUAGC [Mat - Same State NG 3 - JL Mod - D23] (Eterna round: R96, puzzle: Same State NG 3)"
  apparent KD of MS2 coat protein / µM: 0.109
- RESIDUE CODES: "UUGCUUCUCGUAGGAUAUGUAGGAUAUUCCUACAUGAGGAUCACCCAUGUUCGCAUGGAAGAAGGACAGAAGGACGAUCACCCU [pwkr ssNG2 2FMN + 1F5.10] (Eterna round: R96, puzzle: Same State NG 2)"
  apparent KD of MS2 coat protein / µM: 0.235

Which apparent KD of MS2 coat protein is reported for this sequence? GUGGUCAGACAUGAGGAUCACCCAUGUGGAAUAAAUAAGGAGAAGGAUAUUCAAUAUAGGAUAUAGAAGAAGGUCUGGUUGGUG (Eterna round: R96, puzzle: Same State NG 3)
0.0637

Entry under review: GCACAUGAGGAUCACCCAUGUGCGCUUGGUUGUCCAAGCGCACAGGAUAUACCUCCCAAUGGGAGGUAGAAGGGUGAAAAGAAA [Orraveceat] (Eterna round: R96, puzzle: Same State NG 3) . Reported apparent KD of MS2 coat protein?
0.0109

Given the entry GCUAGGAUAUGACGAGGAUCACCCGUUAGAAGGAGCUUCAGCUAGGAUAUGACGAGGAUCACCCGUUAGAAGGAGCACUACUCU [pwkr ssNG3 DX 2xF5 +2xFMN.8] (Eterna round: R96, puzzle: Same State NG 3) , report its measured apparent KD of MS2 coat protein.
0.0909

Reported apparent KD of MS2 coat protein for AGAUCAUGACGAGGAUAUGGUACAUGAGGAUCACCCAUGUAUGUACCAUAGCAACAGCUAGGAAACCAGAAGGCGUCGUGGUCA [jandersonlee JLSSNG2 1.18 Native F5 + F7] (Eterna round: R96, puzzle: Same State NG 2) : what is it?
0.0156

What value of apparent KD of MS2 coat protein has been reported for the following sequence? UGUUGUAUUACAGGAUAUCUAGAAUUUUUAUUUAGAGAAGGGUAUUCACAUGAGGAUCACCCAUGUAUAUACGAGGAAGUUGUG [JMF's solution 30] (Eterna round: R96, puzzle: Same State NG 1)
0.0279

Requested read-out: apparent KD of MS2 coat protein. Entry: AGGCUCAGAGCAGGAUAUAUGUAAUAACAUGAGGAUCACCCAUGUGUCGAGCUUCGGCUCGACACAUAGAAGGGCUCUGAGCCA [SSNG2/2-B1] (Eterna round: R96, puzzle: Same State NG 2)
0.0288

Which value of apparent KD of MS2 coat protein has been reported for AACAGUCGGCGAGGAUAUGGACGUACGGACUAACCCGUGCAGCUCACAUGAGGAUCACCCAUGUUCUAGAAGGCGCCACUGAAA [Onesusatza] (Eterna round: R96, puzzle: Same State NG 2) in the records?
0.0876

###

apparent KD of MS2 coat protein values by entry
Test system: MS2 coat protein
Assay: apparent KD of MS2 coat protein; designed switch direction (-1 OFF switch, 1 ON switch): -1; higher = weaker reporter binding
Settings: input ligand: FMN 200 uM
Express the result in nM but write the number alone.

The following sequences have reported results that may help.
- RESIDUE CODES: "UUUUAGUAAGGAUAUGUGGUACGCUUAAAAUAGGAAGGGACACAGAAGGUACAUGAGGAUCACCCAUGUGAACC [Eternabot (L1) Solution 49] (Eterna round: R97, puzzle: Exclusion 4)"
  REPORTED PROPERTY: "apparent KD of MS2 coat protein"
  VALUE UNITS: "nM"
  RECORDED VALUE: 140
- RESIDUE CODES: "ACACAGCGAGGAUAUACAUGAGGAUCACCCAUGUGGCGGCCGUUACGGUAGGACUAGUGUAGAAGGCGCAUUGG [EX3 #34] (Eterna round: R97, puzzle: Exclusion 3)"
  REPORTED PROPERTY: "apparent KD of MS2 coat protein"
  VALUE UNITS: "nM"
  RECORDED VALUE: 203
- RESIDUE CODES: "AUUUCGGCAGGAUAUACAUGAGGAUCACCCAUGUAAAUUUUUCGUUUAACUUGAAUGUGUAGAAGGGCCAUUUA [Ex3 #61] (Eterna round: R97, puzzle: Exclusion 3)"
  REPORTED PROPERTY: "apparent KD of MS2 coat protein"
  VALUE UNITS: "nM"
  RECORDED VALUE: 21.8
- RESIDUE CODES: "UACAAGCUUUAAAGAUCCUACAUGAGGAUCACCCAUGUGCUCGUCUUAUAACGUACUGUGACGAAAGUCACGGUACG [JL TOV1 3.20] (Eterna round: R97, puzzle: Sensor, turn-off variant 1)"
  REPORTED PROPERTY: "apparent KD of MS2 coat protein"
  VALUE UNITS: "nM"
  RECORDED VALUE: 200
- RESIDUE CODES: "GUGCAACAUGAGGAUCACCCAUGUCAGGAUAUGCGAAUUUCAUCAAAAGAUGAAAUUUGCAGAAGGGACUAUAC [Omei Ex1 A22] (Eterna round: R97, puzzle: Exclusion 1)"
  REPORTED PROPERTY: "apparent KD of MS2 coat protein"
  VALUE UNITS: "nM"
  RECORDED VALUE: 67.4
- RESIDUE CODES: "GUACAUAUAGGAUAUACAUGAGGAUCACCCAUGUAAAUCGUUAGUUGGGAUUCUAAAAGUAGAAGGGUGGUGCG [Eternabot (L2) Solution 30] (Eterna round: R97, puzzle: Exclusion 3)"
  REPORTED PROPERTY: "apparent KD of MS2 coat protein"
  VALUE UNITS: "nM"
  RECORDED VALUE: 27.6
- RESIDUE CODES: "GAGGACUUAGGAUAUACAUGAGGAUCACCCAUGUCCCUAAGCAUGCGACAGCCCUCGAGUAGAAGGGAGGACCA [Eternabot (Original) Solution 3] (Eterna round: R97, puzzle: Exclusion 3)"
  REPORTED PROPERTY: "apparent KD of MS2 coat protein"
  VALUE UNITS: "nM"
  RECORDED VALUE: 14.8
- RESIDUE CODES: "UACAUGAGGAUCACCCAUGUUUUAUCAUGUGUAAUAAUAAUGUAGGAUAUGUAUUAUUUAUUUUAACAGAAGGACAAUAAUAAA [JMF's solution 1] (Eterna round: R96, puzzle: Exclusion NG 3)"
  REPORTED PROPERTY: "apparent KD of MS2 coat protein"
  VALUE UNITS: "nM"
  RECORDED VALUE: 279

Then there is this sequence:
Which apparent KD of MS2 coat protein is listed for GUACUGAAGCUUUGCUUUAGUCGUACAUGAGGAUCACCCAUGUAGGAUAUGGUAAGCAUAGCUUACUAGAAGGAUAGAGUGAUC [Mat - Exclusion NG 3 - Mod of JL - D65] (Eterna round: R96, puzzle: Exclusion NG 3) ?
169

###

Tested on: MS2 coat protein
Test: apparent KD of MS2 coat protein; designed switch direction (-1 OFF switch, 1 ON switch): -1; higher = weaker reporter binding
Conditions: input ligand: none
Returns 1 (yes) if the recorded apparent KD of MS2 coat protein is greater than or equal to 20 nM, and 0 (no) otherwise.

Recorded results for 4 sequences are shown here.
- RESIDUE CODES: "GCAGAGGUAGUGAGGAUAUGCUCUACCUCGGUAGAGCAGAAGGCACAUGAGGAUCACCCAUGUGAUUCUUCUGC [Omei Ex4B B9] (Eterna round: R97, puzzle: Brourd's mod of Exclusion 4)"
  CATEGORY: "0 (no)"
- RESIDUE CODES: "UAAAGUAUAUAGGAUAUCUAGCUGGUAACAGCUAGAGAAGGAUGUACAUGAGGAUCACCCAUGUAAAUCGUGAA [Ex6/13-A2] (Eterna round: R97, puzzle: Exclusion 6)"
  CATEGORY: "0 (no)"
- RESIDUE CODES: "AAGAUUAGGAAAGGAUAUAAAGAGAAACAAAGUGCACAUGAGGAUCACCCAUGUACUGACACGCGUUAGAAGGUUCCAGUCCUC [Eternabot solution 40] (Eterna round: R96, puzzle: Exclusion NG 2)"
  CATEGORY: "1 (yes)"
- RESIDUE CODES: "AAACGGAUAGGAUAUACUUGAGGAUCACCCAAGUGAUCAGUCCCGGGAAUUCCCGCAAGUAGAAGGAUCAAAAG [Arisrevexe] (Eterna round: R97, puzzle: Exclusion 3)"
  CATEGORY: "1 (yes)"

Please find the next sequence below.
Could you tell me if the measured apparent KD of MS2 coat protein of CUCCUCGCUUAGGAUAUGUACACUUGCACCGUGACAGAAGGAAGCACUUGAGGAUCACCCAAGUGCCAGGGUGC [Geena] (Eterna round: R97, puzzle: Exclusion 6) reaches 20 nM or more?
0 (no)
